METHOD_SUMMARY: Percent inhibition of 2,2'-azobis(2-amidinopropane)dihydrochloride induced decay of (R)-phycoerythrin fluorescence emission
Type: functional
Design: concentration or dose not given beside the values
RUN_CONDITIONS: dose or concentration not given here
Reported values of inhibition for individual entries
Output spec: scalar in %, unitless text.

Example compounds with recorded inhibition:
| SUBSTANCE_SMILES | inhibition, % |
| --- | --- |
| CCCCCCNCc1cc(OC)c(O)c(OC)c1.Cl | 65.2 |
| COc1cc(CN(C)C)cc(OC)c1O.Cl | 69 |
| CCC(CC)Oc1cc(CN(C)C)cc(OC(CC)CC)c1O.Cl | 66.8 |
| COc1cc(CN(CC(C)C)CC(C)C)cc(OC)c1O.Cl | 63.7 |
| CCCCN(CCCC)Cc1cc(OC)c(O)c(OC)c1.Cl | 66.6 |
| CCCCCNCc1cc(OC)c(O)c(OC)c1.Cl | 61.6 |

Now for a further compound.
Find the recorded inhibition belonging to CCCN(CCC)Cc1cc(OC)c(O)c(OC)c1.Cl and report it.
63.7
